Heads up, these molecules all have IC50 values measured for human EGFR (His672-Ala1210) (Homo sapiens, UniProt P00533).

Quick check: IC50 of "COc1cc2ncnc(NCc3ccccc3)c2cc1OCCCCCCC(=O)NO" ?
< 100 nM

Quick check: IC50 of "COc1cc2ncnc(Nc3ccc(F)c(Cl)c3)c2cc1OCCCC(=O)NO" ?
< 100 nM

Quick check: IC50 of "COCCOc1cc2ncnc(Nc3ccc(F)c(Cl)c3)c2cc1NC(=O)CCCC(=O)NO" ?
< 100 nM

Quick check: IC50 of "C#Cc1cccc(Nc2ncnc3cc(OC)c(NC(=O)CCCCC(=O)NO)cc23)c1" ?
< 100 nM

Quick check: IC50 of "COc1cc2ncnc(Nc3ccc(F)c(Cl)c3)c2cc1OCCC(=O)NO" ?
< 100 nM

Quick check: IC50 of "COCCOc1cc2ncnc(Nc3ccc(F)c(Cl)c3)c2cc1OCCCCCCC(=O)NO" ?
< 100 nM

Quick check: IC50 of "O=C(CCCCOc1ccc2ncnc(Nc3ccc(F)c(Cl)c3)c2c1)NO" ?
< 100 nM

Quick check: IC50 of "COc1cc2ncnc(Nc3ccc(F)c(Cl)c3)c2cc1OCCCCCC(=O)NO" ?
< 100 nM

Quick check: IC50 of "COc1cc2ncnc(NCCc3ccccc3)c2cc1OCCCCCCC(=O)NO" ?
100 to 1000 nM

Quick check: IC50 of "O=C(CCCCCCOc1ccc2ncnc(Nc3ccc(F)c(Cl)c3)c2c1)NO" ?
< 100 nM

Quick check: IC50 of "COc1cc2ncnc(N[C@H](C)c3ccc(Cl)cc3)c2cc1OCCCCCCC(=O)NO" ?
100 to 1000 nM

Quick check: IC50 of "COc1cc2ncnc(Nc3ccc(F)c(Cl)c3)c2cc1OCCCCCCC(=O)N(C)O" ?
< 100 nM

Quick check: IC50 of "COc1cc2ncnc(Nc3ccc(F)c(Cl)c3)c2cc1OCCOc1ccc(CC(=O)NO)cc1" ?
< 100 nM

Quick check: IC50 of "C#Cc1cccc(Nc2ncnc3cc(OCCOC)c(OCCCCCCC(=O)NO)cc23)c1" ?
< 100 nM

Quick check: IC50 of "Nc1cc(Br)ccc1NC(=O)COc1ccc2ncnc(Nc3ccc(F)c(Cl)c3)c2c1" ?
100 to 1000 nM

Quick check: IC50 of "COc1cc2ncnc(NCc3ccc(F)c(Cl)c3)c2cc1OCCCCCCC(=O)NO" ?
< 100 nM

Quick check: IC50 of "COc1cc2ncnc(NCc3cccc(Br)c3)c2cc1OCCCCCCC(=O)NO" ?
100 to 1000 nM

Quick check: IC50 of "COc1cc2ncnc(Nc3ccc(F)c(Cl)c3)c2cc1OCC(=O)NO" ?
< 100 nM

Quick check: IC50 of "COc1cc2ncnc(N[C@H](C)c3ccc(F)cc3)c2cc1OCCCCCCC(=O)NO" ?
100 to 1000 nM

Quick check: IC50 of "COc1cc2ncnc(Nc3ccc(F)c(Cl)c3)c2cc1NC(=O)CCCCCCC(=O)NO" ?
< 100 nM

====

Could you please report measured IC50 for the items listed next?
Target: HDAC
Experiment: HDAC fluorimetric enzyme assay (Biomol AK-500, HeLa nuclear extract)

Quick check: IC50 of "COc1cc2ncnc(Nc3ccc(F)c(Cl)c3)c2cc1SCCCCCCC(=O)NO" ?
< 0.1 µM

Quick check: IC50 of "COc1cc2ncnc(Nc3ccc(F)c(Cl)c3)c2cc1SCCCCC(=O)NO" ?
< 0.1 µM
